protocol_summary: chemical genetic growth profiling, strain panel (AID 1159580);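 note: tested at 20 µM; growth read once vehicle control cultures reached saturation at 30 °C; 1 = growth at the plate median or of vehicle wells; lower values mean less growth of the strain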
experimental_setup: S. cerevisiae deletion strains, growth OD, locus YKL009W, strain mrt4, stronger effect = lower value
Among all 5,500 compounds or so, about 2,000 (36%) were called active. Roughly 18% stayed inconclusive and do not appear here. This is one part of the list.
Please go through the items and note down their normalized growth.

In the examples that follow, each entry is paired with its recorded normalized growth.
>  <molecule>
CC(C)CCCC(C)[C@H]1CCC2C3CC[C@@H]4C[C@H](O)CC[C@]4(C)C3CC[C@@]21C (stereo partly specified)

>  <normalized growth>
1.02 (inactive)

$$$$
>  <molecule>
CC(C)CCCC(C)C1CCC2C3=CC[C@H]4C[C@@H](O)CC[C@]4(C)C3CC[C@@]21C (stereo partly specified)

>  <normalized growth>
0.997 (inactive)

$$$$
>  <molecule>
CN(C)CCCN1c2ccccc2Sc2ccccc21

>  <normalized growth>
1.02 (inactive)

$$$$
>  <molecule>
CC(C)CCCC(C)C1CCC2C3C[C@@H](O)[C@@]4(O)C[C@@H](O)CC[C@]4(C)C3CC[C@]12C (stereo partly specified)

>  <normalized growth>
0.971 (inactive)

$$$$
>  <molecule>
NC(Cn1ccc(=O)c(O)c1)C(=O)O (stereo unspecified)

>  <normalized growth>
1.01 (inactive)

$$$$
>  <molecule>
CN(C)CCCN1c2ccccc2CCc2ccccc21

>  <normalized growth>
0.992 (inactive)

$$$$
>  <molecule>
CN(C)CCCN1c2ccccc2Sc2ccc(Cl)cc21

>  <normalized growth>
1.02 (inactive)

$$$$
>  <molecule>
COc1ccc2cc(CCC(C)=O)ccc2c1

>  <normalized growth>
0.86 (active)

$$$$

Give normalized growth for each listed item.
1. COc1ccc(C2Sc3ccccc3N(CCN(C)C)C(=O)C2OC(C)=O)cc1 (stereo unspecified)
2. CC(C)CCCC(C)[C@H]1CCC2C3CC=C4C[C@@H](O)CC[C@]4(C)C3CC[C@@]21C (stereo partly specified)
3. CC(C)CCCC(C)C1CCC2C3CC(=O)[C@H]4C[C@@H](O)CC[C@]4(C)C3CC[C@]12C (stereo partly specified)
4. CC(=O)OCC(=O)[C@@]1(O)[C@H](C)CC2C3CCC4=CC(=O)C=C[C@]4(C)[C@@]3(F)[C@@H](O)C[C@@]21C (stereo partly specified)
5. CC(N=C(NC#N)Nc1ccncc1)C(C)(C)C (stereo unspecified)

Reply text:
1.04 (inactive)
0.99 (inactive)
1.01 (inactive)
1 (inactive)
1.04 (inactive)

Give normalized growth for each listed item.
1. CC(CCC(=O)O)[C@H]1CCC2C3CC[C@@H]4CC(=O)CC[C@]4(C)C3C=C[C@@]21C (stereo partly specified)
2. CC(C)CCCC(C)[C@H]1CCC2C3CC=C4CC(=O)CC[C@]4(C)C3CC[C@@]21C (stereo partly specified)
3. CN(C)CCCN1c2ccccc2CCc2ccc(Cl)cc21

Reply text:
["0.809 (active)", "0.943 (inactive)", "0.971 (inactive)"]

These measurements were taken from PubChem BioAssay AID1159580.
